biological target: Scavenger receptor class B member 1 (Mus musculus); test: increase of Alexa488-HDL binding at mSR-BI cells – ldlA[mSR-BI] cells, powder samples, set 2, orthogonal assay for SR-BI HDL uptake inhibitor project, dose response (AID 588810); conditions: ldlA[mSR-BI] CHO cells, Alexa488-HDL binding fluorescence, 3 h
Inconclusive results are not listed.
Measured attribute: AC40

Data request: Can you share its AC40? I mean this molecule: COc1ccc(-c2nnn(CC(=O)N(C3CCCCC3)C(C)C(=O)NC3CCCC3)n2)cc1OC (stereo not drawn)
Data returned: 437 nM

Data request: Can you share its AC40? I mean this molecule: `COC(=O)N1CCc2cc(-c3csc(NC(=O)c4cc(OC)cc(OC)c4)n3)ccc21`
Data returned: 324 nM

Data request: Can you share its AC40? I mean this molecule: CC(C(=O)NC1CCCC1)N(C(=O)Cn1nnc(-c2ccc3c(c2)OCO3)n1)C1CCCCC1 (stereo not drawn)
Data returned: 214 nM

Data request: Can you share its AC40? I mean this molecule: `C[C@@H](C(=O)NC1CCCC1)N(C(=O)Cn1nnc(-c2ccc3c(c2)OCO3)n1)C1CCCCC1`
Data returned: 4690 nM

Data request: Can you share its AC40? I mean this molecule: `CCC(=O)N1CC(C)(C)c2cc(-c3csc(NC(=O)c4ccco4)n3)ccc21`
Data returned: 57.1 nM

Data request: Can you share its AC40? I mean this molecule: `CCC(=O)N1CCc2cc(-c3csc(NC(=O)c4ccc(F)c(OC)c4)n3)ccc21`
Data returned: 358 nM

Data request: Can you share its AC40? I mean this molecule: `COc1cc(OC)cc(C(=O)Nc2nc(-c3ccc4c(c3)CCN4C(=O)CN(C)C)cs2)c1`
Data returned: 232 nM

Data request: Can you share its AC40? I mean this molecule: COc1ccc(-c2cc(CC(=O)N(C3CCCCC3)C(C)C(=O)NC3CCCC3)no2)cc1OC (stereo not drawn)
Data returned: 145 nM

Data request: Can you share its AC40? I mean this molecule: `COc1c(NC(=O)C(=O)c2ccc(OCCN3CCOCC3)c3ccccc23)cc(C(C)(C)C)cc1NS(C)(=O)=O`
Data returned: 1640 nM

Data request: Can you share its AC40? I mean this molecule: `O=C(CN(C(=O)Cn1nnc(-c2ccc3c(c2)OCO3)n1)C1CCCCC1)NC1CCCC1`
Data returned: 337 nM

Data request: Can you share its AC40? I mean this molecule: `C[C@H](C(=O)NC1CCCC1)N(C(=O)Cn1nnc(-c2ccc3c(c2)OCO3)n1)C1CCCCC1`
Data returned: 169 nM

Data request: Can you share its AC40? I mean this molecule: `CCC(=O)N1CCc2cc(-c3csc(NC(=O)c4cccc(OC(F)(F)F)c4)n3)ccc21`
Data returned: 943 nM

Data request: Can you share its AC40? I mean this molecule: `COc1ccc(-c2nnn(CC(=O)N(CC(=O)NC3CCCC3)C3CCCCC3)n2)cc1OC`
Data returned: 231 nM

###

target: Scavenger receptor class B member 1 (Mus musculus) (UniProt Q61009); test: increase of Alexa488-HDL binding at mSR-BI cells – ldlA[mSR-BI] cells, powder samples, set 2, orthogonal assay for SR-BI HDL uptake inhibitor project, dose response (AID 588810); details: ldlA[mSR-BI] CHO cells, Alexa488-HDL binding fluorescence, 3 h
Sequence (Q61009 whole entry, looked up): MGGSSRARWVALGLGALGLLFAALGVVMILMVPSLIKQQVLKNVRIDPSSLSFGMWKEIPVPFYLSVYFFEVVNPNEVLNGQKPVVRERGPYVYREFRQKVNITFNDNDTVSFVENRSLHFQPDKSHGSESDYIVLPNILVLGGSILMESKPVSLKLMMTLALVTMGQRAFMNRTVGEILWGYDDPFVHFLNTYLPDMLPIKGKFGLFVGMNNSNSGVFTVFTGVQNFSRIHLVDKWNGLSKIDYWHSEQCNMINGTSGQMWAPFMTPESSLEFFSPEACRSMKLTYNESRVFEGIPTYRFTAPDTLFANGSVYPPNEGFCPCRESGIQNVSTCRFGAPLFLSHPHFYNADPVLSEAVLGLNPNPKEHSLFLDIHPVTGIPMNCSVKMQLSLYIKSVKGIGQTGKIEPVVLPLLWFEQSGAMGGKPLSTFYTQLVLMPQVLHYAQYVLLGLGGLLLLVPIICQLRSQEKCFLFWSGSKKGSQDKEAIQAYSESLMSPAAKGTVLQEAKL
Records with an inconclusive call do not appear. The source made the active and inactive calls.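 How the source made its calls: active means rising curve reaching 40% of the stimulating control's effect at or below the top valid tested dose; inconclusive means flat curve between 30 and 70% of control, or poor fit; inactive means falling curves and all the rest.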
Respond using exactly one of the listed classes: True for active, False for inactive

Data request: I would be grateful if you could indicate the recorded call for `C[C@@H]1CN([C@H](C)CO)C(=O)c2cc(NC(=O)Cc3cn(C)c4ccccc34)ccc2O[C@H]1CN(C)S(=O)(=O)c1ccc(Cl)cc1` .
Data returned: True

Data request: I would be grateful if you could indicate the recorded call for `CCC(=O)N1CCc2cc(-c3csc(NC(=O)c4cc5ccccc5o4)n3)ccc21` .
Data returned: True

Data request: I would be grateful if you could indicate the recorded call for `COc1cc(OC)cc(C(=O)Nc2nc(-c3ccc4c(c3)CCN4C(C)=O)cs2)c1` .
Data returned: True

Data request: I would be grateful if you could indicate the recorded call for `O=C(Nc1nc(-c2ccc3c(c2)CCN3)cs1)c1ccco1` .
Data returned: True

Data request: I would be grateful if you could indicate the recorded call for `CCC(=O)N1CCc2cc(-c3csc(NC(=O)c4cc(OC)cc(OC)c4)n3)ccc21` .
Data returned: True

Data request: I would be grateful if you could indicate the recorded call for `COCC(=O)N1CCc2cc(-c3csc(NC(=O)c4cc(OC)cc(OC)c4)n3)ccc21` .
Data returned: True

Data request: I would be grateful if you could indicate the recorded call for COc1ccc(-c2nc(CC(=O)N(C3CCCCC3)C(C)C(=O)NC3CCCC3)co2)cc1OC (centres undefined) .
Data returned: True

Data request: I would be grateful if you could indicate the recorded call for `CCC(=O)N1CCc2cc(-c3csc(NCc4cc(OC)cc(OC)c4)n3)ccc21` .
Data returned: True

Data request: I would be grateful if you could indicate the recorded call for `CC(=O)N1CCc2cc(-c3nc(NC(=O)c4cccc(OC(F)(F)F)c4)sc3C)ccc21` .
Data returned: True

Data request: I would be grateful if you could indicate the recorded call for `CCNC(=O)N1CCc2cc(-c3csc(NC(=O)c4cc(OC)cc(OC)c4)n3)ccc21` .
Data returned: True

Data request: I would be grateful if you could indicate the recorded call for `CCC(=O)n1ccc2cc(-c3csc(NC(=O)c4cc(OC)cc(OC)c4)n3)ccc21` .
Data returned: True

Data request: I would be grateful if you could indicate the recorded call for `COc1ccc(-c2nnn(CC(=O)N(CC(=O)N3CCCCC3)C3CCCCC3)n2)cc1OC` .
Data returned: True

Data request: I would be grateful if you could indicate the recorded call for `CCC(=O)N1CC(C)(C)c2cc(-c3csc(NC(=O)c4cc(OC)cc(OC)c4)n3)ccc21` .
Data returned: True

Data request: I would be grateful if you could indicate the recorded call for `COc1ccc(-c2nnn(CC(=O)N(CC(=O)N(C)C3CCCC3)C3CCCCC3)n2)cc1OC` .
Data returned: True

Data request: I would be grateful if you could indicate the recorded call for `CCC(=O)N1CCc2cc(-c3csc(NC(=O)c4cccc(OC)c4)n3)ccc21` .
Data returned: True

Data request: I would be grateful if you could indicate the recorded call for `Cc1ccc2oc(-c3cccc(NC(=O)c4cc(-n5cnnc5)ccc4Cl)c3)nc2c1` .
Data returned: False

Data request: I would be grateful if you could indicate the recorded call for `CCC(=O)N1CCc2cc(-c3csc(NC(=O)c4cc(OC)c(OC)c(OC)c4)n3)ccc21` .
Data returned: True

Data request: I would be grateful if you could indicate the recorded call for `CCC(=O)Nc1ccc(-c2csc(NC(=O)c3cccc(OC)c3)n2)cc1` .
Data returned: True

Data request: I would be grateful if you could indicate the recorded call for `COc1cc(OC)cc(C(=O)Nc2nc(-c3ccc4c(c3)CCN4C(=O)OC(C)(C)C)cs2)c1` .
Data returned: True
